These entries and their values trace back to patent US9617267B2.

- TARGET ENTITY: B-Raf V600E (Homo sapiens (Human), UniProt P15056, V600E)
- Sequence (P15056 whole entry V600E): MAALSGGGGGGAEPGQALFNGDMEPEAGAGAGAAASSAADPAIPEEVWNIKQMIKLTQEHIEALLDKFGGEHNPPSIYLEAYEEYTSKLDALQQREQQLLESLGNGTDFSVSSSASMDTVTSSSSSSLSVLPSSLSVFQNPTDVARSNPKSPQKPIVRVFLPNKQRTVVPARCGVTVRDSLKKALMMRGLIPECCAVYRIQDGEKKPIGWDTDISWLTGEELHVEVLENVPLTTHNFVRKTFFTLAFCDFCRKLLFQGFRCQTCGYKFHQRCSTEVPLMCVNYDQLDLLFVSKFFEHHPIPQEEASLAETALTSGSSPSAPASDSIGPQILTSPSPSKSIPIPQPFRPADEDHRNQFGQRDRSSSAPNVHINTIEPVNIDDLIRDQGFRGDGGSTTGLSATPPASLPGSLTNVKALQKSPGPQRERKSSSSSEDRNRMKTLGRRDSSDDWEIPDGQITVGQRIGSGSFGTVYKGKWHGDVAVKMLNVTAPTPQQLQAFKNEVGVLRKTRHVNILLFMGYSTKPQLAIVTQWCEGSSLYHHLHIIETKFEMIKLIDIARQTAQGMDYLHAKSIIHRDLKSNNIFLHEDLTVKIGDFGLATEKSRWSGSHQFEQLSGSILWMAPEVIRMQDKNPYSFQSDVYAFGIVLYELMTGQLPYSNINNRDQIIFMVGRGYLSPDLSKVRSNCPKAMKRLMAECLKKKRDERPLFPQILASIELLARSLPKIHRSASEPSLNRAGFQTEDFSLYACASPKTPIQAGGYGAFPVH
- PROCEDURE DETAILS: B-Raf V600E kinase activity biochemical assay (AlphaScreen, biotin-MEK1 phosphorylation)
- CONDITION SUMMARY: B-Raf V600E
ENDPOINT LABEL: IC50

1. O=C(c1c(F)ccc(NS(=O)(=O)c2ccc(C(F)(F)F)cc2)c1F)c1c[nH]c2ncnc(NCCO)c12 = > 0.1 µM
2. CCCc1ccc(S(=O)(=O)Nc2ccc(F)c(C(=O)c3c[nH]c4ncnc(C)c34)c2F)cc1 = > 0.1 µM
3. CCCS(=O)(=O)Nc1ccc(F)c(C(=O)c2c[nH]c3ncnc(NC4COC4)c23)c1F = < 0.1 µM
4. CN(C)c1ncnc2[nH]cc(C(=O)c3c(F)ccc(NS(=O)(=O)c4ccc(C(F)(F)F)cc4)c3F)c12 = > 0.1 µM
5. Cn1cc(Nc2ncnc3[nH]cc(C(=O)c4c(F)ccc(NS(=O)(=O)c5ccc(C(F)(F)F)cc5)c4F)c23)cn1 = < 0.1 µM
6. CCCS(=O)(=O)Nc1ccc(F)c(C(=O)c2c[nH]c3ncc(Cl)c(C)c23)c1F = < 0.1 µM
7. O=C(c1c(F)ccc(NS(=O)(=O)c2ccc(C(F)(F)F)cc2)c1F)c1c[nH]c2ncnc(NC3COC3)c12 = < 0.1 µM
8. O=C(c1c(F)ccc(NS(=O)(=O)c2ccc(C(F)(F)F)cc2)c1F)c1c[nH]c2ncnc(Cl)c12 = > 0.1 µM

----------
- System: B-Raf
- PROCEDURE DETAILS: B-Raf kinase activity biochemical assay (AlphaScreen, biotin-MEK1 phosphorylation)
- CONDITION SUMMARY: ratio of IC50 B-Raf / c-Raf-1
ENDPOINT LABEL: Biochemical activity ratio B/C

1. CCCc1ccc(S(=O)(=O)Nc2ccc(F)c(C(=O)c3c[nH]c4ncnc(C)c34)c2F)cc1 = 0.1-10
2. O=C(c1c(F)ccc(NS(=O)(=O)c2ccc(C(F)(F)F)cc2)c1F)c1c[nH]c2ncnc(OCC3CC3)c12 = 0.1-10
3. CCCc1ccc(S(=O)(=O)Nc2ccc(F)c(C(=O)c3c[nH]c4ncnc(OCC)c34)c2F)cc1 = >10
4. O=C(c1c(F)ccc(NS(=O)(=O)c2ccc(C(F)(F)F)cc2)c1F)c1c[nH]c2ncnc(N3CCCC3)c12 = 0.1-10

----------
The compounds listed here are annotated with their IC50.
- TARGET ENTITY: CYP2C19 (Homo sapiens (Human), UniProt P33261)
- Sequence (P33261 whole entry): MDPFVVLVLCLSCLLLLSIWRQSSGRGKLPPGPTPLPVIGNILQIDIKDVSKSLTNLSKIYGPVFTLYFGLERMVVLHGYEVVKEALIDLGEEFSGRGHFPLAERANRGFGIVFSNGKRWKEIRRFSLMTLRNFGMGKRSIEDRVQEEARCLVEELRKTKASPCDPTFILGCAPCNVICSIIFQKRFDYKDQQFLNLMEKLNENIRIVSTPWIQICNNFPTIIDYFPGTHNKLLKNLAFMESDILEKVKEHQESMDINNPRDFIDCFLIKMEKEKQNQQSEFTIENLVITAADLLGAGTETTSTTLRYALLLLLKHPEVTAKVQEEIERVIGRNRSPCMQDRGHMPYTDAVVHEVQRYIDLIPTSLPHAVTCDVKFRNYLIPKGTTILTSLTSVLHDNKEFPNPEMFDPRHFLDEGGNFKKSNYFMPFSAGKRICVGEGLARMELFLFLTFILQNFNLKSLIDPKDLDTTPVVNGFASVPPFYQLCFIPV
- PROCEDURE DETAILS: CYP enzyme inhibition, fluorescent substrate (CEC)
ENDPOINT LABEL: IC50

1. CCCS(=O)(=O)Nc1ccc(F)c(C(=O)c2c[nH]c3ncc(Cl)c(OC)c23)c1F = < 5 µM
2. N#Cc1c(F)cnc2[nH]cc(C(=O)c3c(F)ccc(NS(=O)(=O)c4ccc(C(F)(F)F)cc4)c3F)c12 = > 10 µM
3. CCCc1ccc(S(=O)(=O)Nc2ccc(F)c(C(=O)c3c[nH]c4ncnc(OCC)c34)c2F)cc1 = 5 to 10 µM
4. CCCc1ccc(S(=O)(=O)Nc2ccc(F)c(C(=O)c3c[nH]c4ncnc(Cl)c34)c2F)cc1 = 5 to 10 µM
5. COc1ncnc2[nH]cc(C(=O)c3c(F)ccc(NS(=O)(=O)c4ccc(C(C)C)cc4)c3F)c12 = 5 to 10 µM
